- Test system: Rattus norvegicus
- ASSAY_NOTES: In vivo sterol lowering activity at dose of 0.10 % of the diet
- Assay type: functional
ATTRIBUTE_MEASURED: serum sterol level, percent of control (%)

MOLECULE	ATTRIBUTE_MEASURED	OUTPUT_UNIT	VALUE_PREFIX	OBSERVED_MEASUREMENT
CCCCCCCCCCCCCCCCNc1ccc(C(=O)CCC(=O)O)cc1	serum sterol level, percent of control	%	=	109
CCCCCCCCCCCCCCCCN(CC)c1ccc(C(=O)[O-])cc1.[Na+]	serum sterol level, percent of control	%	=	116
CCCCCCCCCCCCCCCCN(C(=O)C(F)(F)F)c1ccc(C(=O)NNC(C)=O)cc1	serum sterol level, percent of control	%	<	81
CCCCCCCCCCCCCCCCNc1ccc(C(C)=O)cc1	serum sterol level, percent of control	%	=	98
CCCCCCCCCCCCCCCCNc1ccc(C(=O)Oc2ccccc2)cc1	serum sterol level, percent of control	%	<	84
Br.CCCCCCCCCCCCCCCCNc1ccc(COC(C)=O)cc1	serum sterol level, percent of control	%	<	85
CCCCCCCCCCCCCCCCNc1ccc(C(=O)NC(=O)c2ccccc2)cc1	serum sterol level, percent of control	%	<	75
CCCCCCCCCCCCCCCCNc1ccc(C(=O)OCC(C)O)cc1 (stereo unspecified)	serum sterol level, percent of control	%	<	89
CCCCCCCCCCCCCCCCNc1cc(C(=O)OC)cc(C(=O)OC)c1	serum sterol level, percent of control	%	=	108
CCCCCCCCCCCCCCCCNc1ccc(C(=O)O)c(Cl)c1	serum sterol level, percent of control	%	=	95
CCCCCCCCCCCCCCCCNc1ccc(C(=O)NCC(O)CO)cc1 (stereo unspecified)	serum sterol level, percent of control	%	<	72
